system: melanoma cells B-16; experiment: Inhibiting effect on melanin synthesis in pigment cells (whiteness of cell residue observed by eye); format: cell-based; set-up: key: −: same colour as the comparative solvent example (black); +: slight colour difference from the comparative solvent example (black grey); ++: clear colour difference from the comparative solvent example (white grey); +++: no colour in the cells (white); conditions: 3.1 ppm in culture medium, 4 days, B-16 melanoma cells
ASSAY_METRIC: whiteness of cells rated by eye (melanin synthesis inhibition)

MOLECULE	TESTED_SYSTEM	RECORDED_RESULT
CCCCCCCCCCCCC(C)=O [2-tetradecanone, reference compound]	melanoma cells B-16	−
CC1/C=C/CCCCCCCCCCC(=O)CC1 (centres unmarked) [5(E)-4-methylcyclohexadecenone]	melanoma cells B-16	++
OC1CCCCCCCCCCCCCCCC1	melanoma cells B-16	++
O=C1CCCCCCCCCCCCCCC1	melanoma cells B-16	++
O=C1CCCCCCCCCCCCCCC1O (centres unmarked) [2-hydroxycyclohexadecanone]	melanoma cells B-16	+
